system: THRa homodimer (NR concentration 90 nM); assay: PBM binding z-score (relative to random genomic background probes); higher = stronger binding; sequences stand for … in GC…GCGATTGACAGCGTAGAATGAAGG
Entry flag: 1 if PBM binding z-score reaches 0.2; 0 if it does not.

State whether the measured PBM binding z-score reaches 0.2, counting equality as reaching it, for TCGTATAGGTAAAAGGTGAAAGTCGGTGTGGTAA
1

Does CCGACTGGGGCTAAGGTTACCATACTCAGTACGA have a reported PBM binding z-score of at least 0.2?
1

Is PBM binding z-score for GCTTACGGGTCAAAGTTTATAGCATGAATAGAAT at or above 0.2?
0

Exam item: decide whether the reported PBM binding z-score for ACTAGCAGGCCAAGTTTGGATCACTCAAACAAAG is at least 0.2.
0

Has ATCTCTAGCTAACCAAGTTCAGTGAATGCCGAAC a recorded PBM binding z-score greater than or equal to 0.2?
1

====

system: THRa:RXRa (NR concentration 90 nM, RXRa partner concentration 90 nM); experiment: PBM binding z-score (relative to random genomic background probes); higher = stronger binding; sequences stand for … in GC…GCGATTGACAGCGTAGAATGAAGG
measured_quantity: PBM binding z-score
Number, no unit, nothing else.

So, CTAACTAGGTCAAGGACAGTGAATCTCCGCACGC ? Its PBM binding z-score was 3.08

Data point: CATACAGGGTCAGCTAGGCGAGAGTAGGGACGGC ; PBM binding z-score = 3.05

Note to self: PBM binding z-score recorded for ACTATTAGTTGAGACGGGGGCAACCGATAGGTTG was 3.01

The sequence identified as CCTAATGGGCCAAAAAGGTCATTGATGCCGATAA registered its PBM binding z-score at 3.03

# PBM binding z-score of CAAACTAGGTCAAGAGGTAAAAGTCCGCTTCCCG = 2.99

// field: PBM binding z-score; key: TCGAGTAGGTTAGTTGGGGCATTCAGCCAACATA ; value = 1.01

====

tested on: THRa:RXRa (NR concentration 90 nM, RXRa partner concentration 90 nM); assay: PBM binding z-score (relative to random genomic background probes); higher = stronger binding; sequences stand for … in GC…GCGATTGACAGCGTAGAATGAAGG
So I've got a bunch of sequences here, and I need their PBM binding z-score values.
Answer field: number only, no words.

// recorded PBM binding z-score for TCTCGGAGGACACGAAGGTCAGAGATTTCCAGAG : 2.92

For GCGACTGGGGCAACGCAGGTTACCATAAGGTTGG the sequence record lists PBM binding z-score as 2.88

Per the record, AGAATGAGGTTATTTAGATCAGGGAATTGCGGTC has PBM binding z-score of 2.17

Record summary for CCTAGTTCGTCAAGGTCACACACGCTATAGGTAC : reported PBM binding z-score = 4.39

Form field PBM binding z-score, entry CTACCAAGGTGAACAAGCTCGTTGATTACTATTC : 1.63

# PBM binding z-score (sequence: AGTCAATGTTCAGGACGAGGTAACGTAAAGCACG ) is 2.16

Notebook: ACTAGCAGGCGAAGGGTCACTCAAGATTAGTCCG , PBM binding z-score read as 2.32

Notebook: ATCGAAAGGTCGAGGGTGAGTATACCCACCCGAA , PBM binding z-score read as 1.94

For record TGGATGAGGTTAAAGATCAGGGAACGTGGCGTCG the listed PBM binding z-score is 2.88

The sequence listed as ACTTACGGGTCAACGAGCTTATAGCACGCGTATA shows PBM binding z-score equal to 2.46

Data point: TCAGACAGGTGAAGGTAACTCATGTACGCAGTCG ; PBM binding z-score = 0.677

// recorded PBM binding z-score for ACTATTAGGTGACTTAGGGCAACCGATACGACGC : 2.76

Noted for TTACCAAGGTGAAGGTCGTTGAGCCCTCTGTAGA : its PBM binding z-score reads 2.14

Reported PBM binding z-score for TCAGCTAGGTCAGTTGGTCAGCTAACGAGCTGCC was 0.928

get_value(item= CCTCGGAGGACCACAGGAGGTCAGAGCTGCCAGA , readout=PBM binding z-score) returns 2.76

The reported PBM binding z-score of the sequence TCATATAGGTAATATAGGTGAAAGTCGGCATCTA was 0.364

The recorded PBM binding z-score for GAGACTGGGGCAAAGCAGGTTACCATAAGGTTGG is 3.14

Source listed as the supplement of paper PMC6555819.
